# assay-overview: Cytotoxicity assay (MTT method) against Jurkat cell lines
# Assay type: cell-based
# stated-conditions: human, Jurkat cells (human T-cell leukemia), Doxorubicin as positive control
# Description: The cytotoxicity assay of the isolated compounds were evaluated against human lung carcinoma (A549), human cervical cancer (HeLa), human leukemia (K562), and human T-cell leukemia (Jurkat) cell lines using the MTT method with Doxorubicin as the positive control.
measurement-name: IC50 (nM)
State the answer as a number, implicitly in nM.

In plain terms, COC(=O)NCCCCCNC(=O)C1=NO[C@]2(C=C(Br)C(OC)=C(Br)[C@@H]2O)C1 has a documented IC50 of 880

* * *

# System: human cervical cancer (HeLa) cell lines
# assay-overview: Cytotoxicity assay (MTT method) against HeLa cell lines
# Format: cell-based
# stated-conditions: HeLa cells
measurement-name: IC50 (µM)
Entry rule: numbers only, all in µM.

[
  {
    "compound": "CN1C(=O)N(C)C(O)(CC2(O)C(=O)Nc3ccccc32)C1=O (single isomer, unassigned; (-)) [(−)-3, (−)-oxoaplysinopsin C]",
    "IC50 (µM)": 61.6
  }
]

Note to self: IC50 recorded for CN1C(=O)N(C)C(O)(CC2(O)C(=O)Nc3ccccc32)C1=O (single isomer, unassigned; (+)) [(+)-3, (+)-oxoaplysinopsin C] was 27
